Where do these numbers come from? They come from patent US20250296909A1.

Relative cell survival rate (%) for assorted compounds
- Tested on: T lymphocyte cell line Jurkat E6-1
- assay-explanation: Cytotoxicity experiment (CCK-8, relative cell survival)
- Assay type: cell-based
- assay-conditions: 30 μM; 24 hours; untreated cells = 100%
Quick reminder: number only, in %, skip the unit.

Examples from the recorded data:
compound="CCCCCCCCCCCCNC(=O)c1ccccc1C(=O)O [Compound 37]" measured_target="T lymphocyte cell line Jurkat E6-1" measured_quantity="Relative cell survival rate (%)" unit=% experimental_value=90
compound="CCCCCCCCCCC(CNCc1ccccc1Br)Cc1ccccc1Br (stereo not shown) [Compound 44]" measured_target="T lymphocyte cell line Jurkat E6-1" measured_quantity="Relative cell survival rate (%)" unit=% experimental_value=94
compound="CCCCCCCCNC(=O)c1cccnc1N [Compound 74]" measured_target="T lymphocyte cell line Jurkat E6-1" measured_quantity="Relative cell survival rate (%)" unit=% experimental_value=81

Relative cell survival rate (%) for CCCCCCCCCCCCNC(=O)c1ccccc1[N+](=O)[O-] [Compound 50] ?
70

Would you mind doing CCCCCCCCCCCCNC(=O)c1ccccc1Oc1ccccc1 [Compound 61] as well?
76

---

- Test system: T lymphocyte cell line Jurkat E6-1
- assay-explanation: Cytotoxicity experiment (CCK-8, relative cell survival)
- Format: cell-based
- assay-conditions: 50 μM; 24 hours; untreated cells = 100%
Entry class follows Relative cell survival rate (%): 0 (below 80%), 1 (80% to below 90%), 2 (90% or more)

compound="CCCCNC(=O)c1ccccc1F [Compound 81]" class=2
compound="CC(C)=CCC/C(C)=C/CNC(=O)c1cccnc1N [Compound 75]" class=1
compound="CCCCCCCCCCCCNC(=O)c1ccccc1-n1cccc1 [Compound 84]" class=2
compound="CCCCCCCCCCCCNS(=O)(=O)c1c(Cl)cccc1Cl [Compound 40]" class=1
compound="CCCCCCCCCCCCNC(=O)c1cc2ccccc2cc1N [Compound 23]" class=0
compound="CCCCCCCCCCCCNC(=O)c1ccccc1NC [Compound 65]" class=0

Consider CCCCCCCCCCCCNS(=O)(=O)c1ccccc1F [Compound 45] . To which Relative cell survival rate (%) class does it belong?
0

Field entry: CCCCCCCCCCC(CNCc1ccccc1Br)Cc1ccccc1Br (stereo not drawn) [Compound 44]
2

And CCCCCCCCCCCCNC(=O)c1nccc2ccccc12 [Compound 20] ?
2

Now give it for CCCCCCCCCCCCNC(=O)c1ccccc1C(=O)c1ccc(Cl)cc1 [Compound 16] too.
1

Can you handle CCCCCCCCCCCCNC(=O)c1cccnn1 [Compound 31] next?
2

Now the compound CCCCCCCCCCCCNC(=O)c1cccnc1Br [Compound 76]
0

Please do the same for CCCCCCCCCCCCNC(=O)c1cccnc1SC [Compound 24] as well.
0

Next compound: CCCCCC(=O)Nc1ccc(CNC(=O)c2ccccc2Br)cc1 [Compound 47]
2

---

- Tested on: spleen T cells
- assay-explanation: T cell proliferation inhibition (CFSE, FACS), CD3/CD28-activated spleen T cells
- Format: cell-based, C57BL/6 mice
- assay-conditions: Mus musculus, T-cell, 72 h; Table 2; 10 μM; 3 days; relative to CD3/CD28+DMSO; read-out: Proliferation inhibition rate (%)
Each record here notes measured inhibition at 10 µM.
Report the value in % with no unit label.

In the examples that follow, each entry is paired with its recorded inhibition at 10 µM.
compound="CCCCCCCCNCCCNC(=O)c1nccnc1Cl [Compound 82]" measured_target="spleen T cells" experimental_value=60
compound="CCCCCCCCCCCCNC(=O)c1ccccc1C(=O)NC1CCCCC1 [Compound 53]" measured_target="spleen T cells" experimental_value=22
compound="CCCCCCCCCCCCNC(=O)c1ccccc1Nc1cccc(C)c1C [Compound 51]" measured_target="spleen T cells" experimental_value=100
compound="CCCCCCCCCCCCNC(=O)c1c(F)cccc1[N+](=O)[O-] [Compound 64]" measured_target="spleen T cells" experimental_value=79
compound="CCCCCCCCCCCCNC(=O)c1cccc(Cl)c1N [Compound 29]" measured_target="spleen T cells" experimental_value=5

Could you share which inhibition at 10 µM value was measured for CCCCCCCCCCCCNC(=O)c1cccnc1Nc1cccc(C(F)(F)F)c1 [Compound 33] ?
33

CCCCCCCCCCCCNC(=O)c1cnccc1N [Compound 71] ?
100

Lookup CCCCCCCCCCCCNC(=O)c1ccc(Cl)cc1Cl [Compound 60]
10

Subsequent entry: CCCCCCCCCCCC(=O)NCc1ccccc1Br [Compound 43]
27

Also need CCCCCCCCCCCCNC(=O)c1cccnc1N [Compound 69] , thanks.
99

Thanks! And CCCCCCCCCCCCNC(=O)c1ncccc1Cl [Compound 11] ?
10

Cool, now CCCCCCCCCCCCNC(=O)c1ccccc1I [Compound 63]
30

Here is the next compound: CCCCCCCCCCCCNS(=O)(=O)c1c(F)cccc1F [Compound 54]
55

Item: CCCCCCCCCCCCNC(=O)c1cc(Cl)cc(Cl)c1O [Compound 28]
11
